- TEST SYSTEM: Nuclear receptor subfamily 1 group I member 2 (Mus musculus) (UniProt O54915)
- Sequence (O54915 whole entry, looked up): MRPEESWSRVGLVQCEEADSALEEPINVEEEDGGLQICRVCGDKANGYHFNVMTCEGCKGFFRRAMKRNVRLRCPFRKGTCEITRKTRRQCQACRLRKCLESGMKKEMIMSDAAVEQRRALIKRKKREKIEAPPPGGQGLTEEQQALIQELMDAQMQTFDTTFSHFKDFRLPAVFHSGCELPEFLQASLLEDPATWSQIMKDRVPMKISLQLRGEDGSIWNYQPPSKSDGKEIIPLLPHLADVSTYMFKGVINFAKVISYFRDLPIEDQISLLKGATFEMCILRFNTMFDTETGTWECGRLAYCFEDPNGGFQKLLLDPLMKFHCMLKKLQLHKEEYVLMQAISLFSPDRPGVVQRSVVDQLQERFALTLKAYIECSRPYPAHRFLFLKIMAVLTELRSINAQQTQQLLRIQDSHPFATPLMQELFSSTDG
- MEASUREMENT PROTOCOL: ATG_mPXR_XSP1: Attagene TRANS-FACTORIAL Multi-Species (XSP1) HepG2 Assay for mouse Pregnane X Receptor (PXR) (AID 2283803)
Results filed as inconclusive are left out. The source made the active and inactive calls. Rule for the calls: active = hit-call score of the fitted dose curve at least 0.9, where 1 is the maximum; inconclusive = response in the unintended direction; inactive = score below 0.9.
A correct response names exactly one class from active, inactive

What call does the record list for Oc1ccc(Cl)cc1Cc1ccccc1 ? inactive

What call does the record list for O=S(=O)(O)C(F)(F)C(F)(F)C(F)(F)C(F)(F)C(F)(F)C(F)(F)C(F)(F)C(F)(F)F ? active

What call does the record list for CCCN(CCOc1c(Cl)cc(Cl)cc1Cl)C(=O)n1ccnc1 ? active

What call does the record list for CC1(C)C(C=C(Cl)Cl)C1C(=O)OC(C#N)c1ccc(F)c(Oc2ccccc2)c1 (configuration not stated) ? active

What call does the record list for Oc1cc(Cl)ccc1Oc1ccc(Cl)cc1Cl ? active

What call does the record list for CCCN(CCC)c1c([N+](=O)[O-])cc(C(F)(F)F)cc1[N+](=O)[O-] ? active

What call does the record list for O=S1OCC2C(CO1)C1(Cl)C(Cl)=C(Cl)C2(Cl)C1(Cl)Cl (configuration not stated) ? active
